Source listed as patent US12643887B2.

Subject Of Test: human HIPK2 (Homo sapiens, UniProt Q9H2X6)
Construct: Recombinant human HIPK2 (1-640); GST (N); purchased SignalChem H04-11BG; host or cells: Sf9 insect cells
Sequence (Q9H2X6 1-640): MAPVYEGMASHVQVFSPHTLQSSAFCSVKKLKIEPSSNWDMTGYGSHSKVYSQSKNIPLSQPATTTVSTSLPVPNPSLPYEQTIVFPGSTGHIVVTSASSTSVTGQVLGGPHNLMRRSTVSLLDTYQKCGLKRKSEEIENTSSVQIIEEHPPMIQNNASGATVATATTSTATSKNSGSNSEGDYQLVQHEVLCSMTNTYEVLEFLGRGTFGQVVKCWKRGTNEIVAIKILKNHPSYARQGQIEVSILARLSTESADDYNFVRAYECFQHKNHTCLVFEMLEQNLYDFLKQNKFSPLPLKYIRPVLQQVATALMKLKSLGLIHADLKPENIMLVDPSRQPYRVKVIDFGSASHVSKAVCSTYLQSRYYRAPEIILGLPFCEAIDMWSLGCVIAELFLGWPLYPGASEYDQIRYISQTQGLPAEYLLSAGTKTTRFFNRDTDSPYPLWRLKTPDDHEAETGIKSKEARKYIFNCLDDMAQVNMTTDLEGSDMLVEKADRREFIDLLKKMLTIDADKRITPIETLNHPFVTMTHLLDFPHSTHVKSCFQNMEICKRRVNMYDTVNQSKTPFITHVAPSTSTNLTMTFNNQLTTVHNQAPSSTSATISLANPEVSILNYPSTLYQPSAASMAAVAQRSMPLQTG
Measurement Protocol: HIPK2 enzyme assay (ADP-Glo)
Format: biochemical
Conditions: ADP-Glo, ATP 5 μM; read-out: HIPK2 IC50
Property Measured: IC50

A selection of reference data follows.
1) CN(CC1CC1)C1=N/C(=C\c2ccc3c(c2)OCO3)C(=O)N1 [Example 11] = > 10 µM
2) CC(C)NC1=N/C(=C\c2ccc3scnc3c2)C(=O)N1 [Example 49] = > 10 µM
3) CC(C)NC1=N/C(=C\c2ccc3ncsc3c2)C(=O)N1C [Example 45] = 1 to 10 µM
4) O=C1NC(Nc2ccc3nc(Nc4ccccc4)sc3c2)=N/C1=C\c1ccc2ncsc2c1 [Example 104] = 1 to 10 µM
5) O=C1NC(N(Cc2ccccc2)c2ccccc2)=N/C1=C\c1ccc2ncsc2c1 [Example 41] = 1 to 10 µM
6) O=C1NC(Nc2ccccc2)=N/C1=C\c1ccc2nccnc2c1 [Example 16] = 1 to 10 µM
7) CN(C1=N/C(=C\c2ccc3c(c2)OC(F)(F)O3)C(=O)N1)c1ccccc1 [Example 17] = > 10 µM
8) CN(C1=N/C(=C\c2ccc3c(c2)OCO3)C(=O)N1)c1cccnc1 [Example 18] = > 10 µM

Batch request: IC50 for each of the following compounds.
1. CN(C1=N/C(=C\c2ccc3c(c2)OCCO3)C(=O)N1)c1ccc2ncsc2c1 [Example 84]
2. O=C(O)CCN(C1=N/C(=C\c2ccc3c(c2)OCO3)C(=O)N1)c1ccccc1 [Example 27]
3. Cn1cnc2cc(NC3=N/C(=C\c4ccc5ncsc5c4)C(=O)N3)ccc21 [Example 61]

A)
["1 to 10 µM", "1 to 10 µM", "0.1 to 1 µM"]

Report IC50 for each item below.
1. O=C1NC(Nc2ccc3ncsc3c2)=N/C1=C\c1ccc2[nH]ccc2c1 [Example 58]
2. O=C1NC(Nc2ccc3sccc3c2)=N/C1=C\c1ccc2ncsc2c1 [Example 101]
3. O=C1NC(Nc2ccccc2)=N/C1=C\c1ccc2cn[nH]c2c1 [Example 54]
4. CN(C1=N/C(=C\c2ccc3ncsc3c2)C(=O)N1)c1ccc(Cl)cc1 [Example 24]
5. O=C1NC(Nc2ccc3ncsc3c2)=N/C1=C\c1ccc2nccnc2c1 [Example 94]
6. O=C1NC(N(Cc2ccccc2)c2ccc3ncsc3c2)=N/C1=C\c1ccc2ncsc2c1 [Example 99]
7. O=C1NC(Nc2ccc3ncsc3c2)=N/C1=C\c1ccc2c(c1)OCO2 [Example 47]
8. CN(Cc1ccccc1)C1=N/C(=C\c2ccc3c(c2)OCO3)C(=O)N1 [Example 23]

A)
1. > 10 µM
2. > 10 µM
3. > 10 µM
4. 0.1 to 1 µM
5. > 10 µM
6. 0.1 to 1 µM
7. > 10 µM
8. > 10 µM

Consider the following items and state reported IC50 for each.
1. CN(CCN1CCOCC1)C1=N/C(=C\c2ccc3c(c2)OCO3)C(=O)N1 [Example 20]
2. Cc1nc2ccc(NC3=N/C(=C\c4ccc5ncsc5c4)C(=O)N3)cc2s1 [Example 90]
3. O=C1NC(Nc2ccccc2)=N/C1=C\c1ccc2[nH]ccc2c1 [Example 51]
4. O=C1NC(Nc2ccc3ncsc3c2)=N/C1=C\c1ccc2scnc2c1 [Example 57]
5. O=C1NC(Nc2ccccc2)=N/C1=C\c1ccc2nn[nH]c2c1 [Example 56]
6. CC(=O)N(C1=N/C(=C\c2ccc3ncsc3c2)C(=O)N1)c1ccc2ncsc2c1 [Example 91]
7. COc1ccc(NC2=N/C(=C\c3ccc4ncsc4c3)C(=O)N2)cc1 [Example 25]

A)
> 10 µM
< 0.1 µM
> 10 µM
0.1 to 1 µM
1 to 10 µM
< 0.1 µM
0.1 to 1 µM
